- testTarget: PPARγ-RXRα heterodimer (Homo sapiens, UniProt P37231)
- Sequence (P37231 29-505): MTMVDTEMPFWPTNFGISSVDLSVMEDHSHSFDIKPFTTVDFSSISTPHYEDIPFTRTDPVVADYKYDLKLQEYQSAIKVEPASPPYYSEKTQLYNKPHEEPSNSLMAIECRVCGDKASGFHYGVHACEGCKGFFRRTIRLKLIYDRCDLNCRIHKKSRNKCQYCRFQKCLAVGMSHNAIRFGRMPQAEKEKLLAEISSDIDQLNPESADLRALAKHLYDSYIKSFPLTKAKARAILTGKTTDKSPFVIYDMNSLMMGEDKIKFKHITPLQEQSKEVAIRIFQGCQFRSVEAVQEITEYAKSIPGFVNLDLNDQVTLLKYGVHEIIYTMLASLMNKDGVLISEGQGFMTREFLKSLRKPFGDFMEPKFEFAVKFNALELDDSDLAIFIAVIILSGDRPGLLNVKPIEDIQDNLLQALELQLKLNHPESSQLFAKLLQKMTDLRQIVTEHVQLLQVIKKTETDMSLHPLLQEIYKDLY
- Sequence (P19793 whole entry partner): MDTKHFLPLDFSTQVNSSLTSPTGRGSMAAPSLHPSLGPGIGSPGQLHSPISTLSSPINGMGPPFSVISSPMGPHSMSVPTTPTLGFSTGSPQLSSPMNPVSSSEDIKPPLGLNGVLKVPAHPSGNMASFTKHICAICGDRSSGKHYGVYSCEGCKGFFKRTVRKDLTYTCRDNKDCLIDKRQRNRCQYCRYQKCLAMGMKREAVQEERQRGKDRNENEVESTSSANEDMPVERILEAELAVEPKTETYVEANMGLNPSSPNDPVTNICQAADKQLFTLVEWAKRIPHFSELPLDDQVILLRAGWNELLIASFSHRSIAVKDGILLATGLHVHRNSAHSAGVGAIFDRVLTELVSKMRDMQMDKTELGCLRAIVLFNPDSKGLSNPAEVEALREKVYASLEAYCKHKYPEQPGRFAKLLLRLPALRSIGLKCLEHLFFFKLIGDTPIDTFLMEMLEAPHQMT
- assayName: PPARγ-RXRα heterodimer ligand activity, luciferase reporter in PPARγ:RXRα:4ERPP/CHO-K1 cells (Test Example 3)
- experimentalConditions: concentration for 50% of the maximum fold induction of luciferase activity; 48 hours, CHO-K1 cells
experimentalReadout: pEC50
Scale note: pEC50 = -log10(concentration in M).

Take a look at these entries with their results.
- smilesCode: "Cc1oc(-c2ccccc2)nc1COc1cc(COc2ncccc2CC(=O)O)on1"
  recordedValue: 7.23
- smilesCode: "CCOc1cc(OCc2cccc(OCc3nc(-c4ccccc4)oc3C)c2)ccc1CCC(=O)O"
  recordedValue: 6.48
- smilesCode: "Cc1oc(-c2ccccc2)nc1COc1cccc(COc2cccc(CC(=O)O)c2)c1"
  recordedValue: 7.11
- smilesCode: "COc1ccc(OCc2ccc(OCc3nc(-c4ccccc4)oc3C)cc2)c(CC(=O)O)c1"
  recordedValue: 6.80
- smilesCode: "CCOc1ccc(OCc2ccc(OCc3nc(-c4ccccc4)oc3C)cc2)c(CC(=O)O)c1"
  recordedValue: 7.46

Continue with the next compound.
What does the record list as pEC50 for Cc1oc(-c2ccco2)nc1COc1cc(COc2cccc(CC(=O)O)c2)ccn1 ?
7.28

====

experimentalReadout: melting point

- compound: "COc1cc(COc2ncccc2CC(=O)O)ccc1OCc1nc(-c2ccccc2)oc1C [Example 91]"
  experimentalReadout: "melting point"
  recordedValue: "145 to 146 °C"

What does the record list as melting point for CCOc1ccc(OCc2cccc(OCc3nc(-c4ccccc4)oc3C)c2)cc1CCC(=O)O [Example 33] ?
136 to 137 °C

What does the record list as melting point for COC(=O)Cc1ccccc1OCc1cc(OCc2nc(-c3ccccc3)sc2C)no1 [Example 113] ?
108 to 109 °C

What does the record list as melting point for Cc1oc(-c2ccccc2)nc1COc1ccc(COc2cncc(CC(=O)O)c2)cc1 [Example 38] ?
139 to 140 °C

What does the record list as melting point for CCOc1ccc(OCc2ccc(OCc3nc(-c4ccccc4)oc3C)cc2)c(CCC(=O)O)c1 [Example 29] ?
115 to 116 °C

What does the record list as melting point for Cc1oc(-c2ccco2)nc1COc1ccc(COc2ccccc2CC(=O)O)cn1 [Example 124] ?
119 to 120 °C

What does the record list as melting point for Cc1oc(-c2ccccc2)nc1CCc1noc(COc2ccccc2CC(=O)O)n1 [Example 107] ?
120 to 121 °C

What does the record list as melting point for COC(=O)Cc1ccccc1OCc1ccc(OCc2nc(-c3ccccc3)sc2C)nc1 [Example 121] ?
119 to 120 °C

What does the record list as melting point for Cc1oc(-c2ccccc2)nc1COc1ccccc1COc1ccccc1CC(=O)O [Example 56] ?
145 to 146 °C

What does the record list as melting point for Cc1ccc(CC(=O)O)c(OCc2ccc(OCc3nc(-c4ccccc4)oc3C)cc2)n1 [Example 110] ?
138 to 139 °C

====

- testTarget: PPARγ-RXRα heterodimer (Homo sapiens, UniProt P37231)
- assayName: PPARγ-RXRα heterodimer ligand activity, luciferase reporter in PPARγ:RXRα:4ERPP/CHO-K1 cells (Test Example 3)
- experimentalConditions: concentration for 50% of the maximum fold induction of luciferase activity; 48 hours, CHO-K1 cells
experimentalReadout: pEC50
Scale note: pEC50 = -log10(concentration in M).

- smilesCode: "CCOc1cc(OCc2ccc(OCc3nc(-c4ccccc4)oc3C)cc2)ccc1CCC(=O)O"
  pEC50: 6.03
- smilesCode: "Cc1oc(-c2ccccc2)nc1COc1cncc(COc2cccc(CC(=O)O)c2)c1"
  pEC50: 6.72
- smilesCode: "Cc1oc(-c2ccccc2)nc1COc1ccc(COc2cccnc2CC(=O)O)cc1"
  pEC50: 6.21

What does the record list as pEC50 for Cc1oc(-c2ccccc2)nc1COc1ccc(OCc2ncccc2CC(=O)O)cc1 ?
6.89

What does the record list as pEC50 for Cc1sc(-c2ccccc2)nc1COc1ccc(COc2ncccc2CC(=O)O)cc1 ?
6.41

What does the record list as pEC50 for Cc1sc(-c2ccccc2)nc1COc1ccc(COc2ccccc2CC(=O)O)cn1 ?
7.77

What does the record list as pEC50 for Cc1oc(-c2ccccc2)nc1COc1ccc(COc2cccc(CC(=O)O)c2)cc1 ?
6.54

What does the record list as pEC50 for COc1ccc(COc2cccc(CC(=O)O)c2)cc1OCc1nc(-c2ccccc2)oc1C ?
6.96

What does the record list as pEC50 for CCCc1oc(-c2ccccc2)nc1COc1ccc(COc2ccccc2CC(=O)O)cc1 ?
6.59

====

The compounds listed here are annotated with their melting point.

- smilesCode: "Cc1sc(-c2ccccc2)nc1COc1cc(COc2ncccc2CC(=O)O)on1"
  experimentalReadout: "melting point"
  recordedValue: "109 to 110 °C"
- smilesCode: "CCOC(=O)C=Cc1cccnc1OCc1ccc(OCc2nc(-c3ccco3)oc2C)c(OC)c1"
  experimentalReadout: "melting point"
  recordedValue: "85 to 87 °C"
- smilesCode: "Cc1oc(-c2ccccc2)nc1COc1ccc(COc2ncccc2C=CC(=O)O)cc1"
  experimentalReadout: "melting point"
  recordedValue: "174 to 175 °C"
- smilesCode: "COC(=O)Cc1cc(-c2ccccc2)ccc1OCc1ccc(OCc2nc(-c3ccccc3)oc2C)cc1"
  experimentalReadout: "melting point"
  recordedValue: "111 to 112 °C"
- smilesCode: "Cc1oc(-c2ccccc2)nc1COc1ccc(COc2ccccc2CCC(=O)O)cc1"
  experimentalReadout: "melting point"
  recordedValue: "98 to 99 °C"

What does the record list as melting point for Cc1oc(-c2ccccc2)nc1/C=C/c1ccc(COc2ccccc2CC(=O)O)cc1 ?
189 to 190 °C

What does the record list as melting point for Cc1oc(-c2ccccc2)nc1COc1ccc(COc2cccc(CCC(=O)O)c2)cc1 ?
157 to 158 °C

====

The compounds listed here are annotated with their pEC50.
- testTarget: PPARγ-RXRα heterodimer (Homo sapiens, UniProt P37231)
- Construct: expressed in transfected cells; host or cells: CHO-K1
- assayName: PPARγ-RXRα heterodimer ligand activity, luciferase reporter in PPARγ:RXRα:4ERPP/CHO-K1 cells (Test Example 3)
- Assay type: cell-based
- experimentalConditions: concentration for 50% of the maximum fold induction of luciferase activity; 48 hours, CHO-K1 cells
- Method: A PPARγ:RXRα:4ERPP/CHO-K1 cells obtained in Reference Example 5 described later were cultured in HAM F12 medium (produced by NISSUI SEIYAKU) containing 10% Fetal bovine serum (produced by Life Technologies, Inc., USA) and then inoculated to a 96-well white plate (produced by Corning Costar Corporation, USA) at the density of 2×10^4 cells/well, and cultured in a CO2 gas incubator at 37° C. overnight. […]
Scale note: pEC50 = -log10(concentration in M).

Take a look at these entries with their results.
- smilesCode: "CCCc1ccc(OCc2ccc(OCc3nc(-c4ccccc4)oc3C)cc2)c(CC(=O)O)c1"
  pEC50: 6.96
- smilesCode: "Cc1oc(-c2ccccc2)nc1COc1cc(COc2ccccc2CC(=O)O)on1"
  pEC50: 8.04
- smilesCode: "O=C(O)Cc1ccccc1OCc1ccc(OCc2csc(-c3ccccc3)n2)cc1"
  pEC50: 5.92
- smilesCode: "Cc1sc(-c2ccccc2)nc1COc1cc(COc2ncccc2CC(=O)O)on1"
  pEC50: 7.15
- smilesCode: "Cc1oc(-c2ccccc2)nc1COc1ccc(COc2ccccc2CC(=O)O)cc1"
  pEC50: 7.21

Continue with the next compound.
What does the record list as pEC50 for Cc1ccc(OCc2ccc(OCc3nc(-c4ccccc4)oc3C)cc2)c(CC(=O)O)c1 ?
6.70

====

experimentalReadout: melting point

- smilesCode: "Cc1oc(-c2ccccc2)nc1COc1cccc(COc2cccc(CC(=O)O)c2)n1"
  melting point: "97 to 98 °C"
- smilesCode: "COC(=O)Cc1ccccc1OCc1cc(OCCc2nc(-c3ccccc3)sc2C)no1"
  melting point: "80 to 81 °C"
- smilesCode: "Cc1oc(-c2ccccc2)nc1COc1ccc(COc2ncccc2CC(=O)O)cn1"
  melting point: "147 to 148 °C"
- smilesCode: "CCOc1ccc(OCc2ccc(OCc3nc(-c4ccccc4)oc3C)cc2)cc1CC(=O)O"
  melting point: "122 to 123 °C"
- smilesCode: "Cc1oc(-c2ccccc2)nc1COc1cccc(COc2cccc(CC(=O)O)c2)c1"
  melting point: "101 to 102 °C"
- smilesCode: "COC(=O)Cc1ccccc1OCc1ccc(OCCc2nc(-c3ccccc3)oc2C)nc1"
  melting point: "78 to 79 °C"

Continue with the next molecule.
What does the record list as melting point for Cc1oc(-c2ccccc2)nc1CCc1nc(COc2ccccc2CC(=O)O)cs1 ?
152 to 153 °C
